particulars: in acetonitrile, 323.15 K
measured endpoint: solubility (mole fraction)
Write the value as a bare number.

Prompt line: Reported solubility (mole fraction), molecule CCOc1nc2cccc(C(=O)OC(C)OC(=O)OC3CCCCC3)c2n1Cc1ccc(-c2ccccc2-c2nn[nH]n2)cc1 (stereo unspecified) : ____
Response line: 0.00263

---

particulars: in acetone, 303.15 K
measured endpoint: solubility (mole fraction)
Lab note: write the figure by itself, no unit.

Prompt line: Using the record for CCOc1nc2cccc(C(=O)OC(C)OC(=O)OC3CCCCC3)c2n1Cc1ccc(-c2ccccc2-c2nn[nH]n2)cc1 (stereo unspecified) , report its solubility (mole fraction).
Response line: 0.00946

Recorded values, source BigSolDB 2.1.
